System: CP203
Test: qHTS profiling for inhibitors of Plasmodium falciparum proliferation (AID 504749); also: nearly all actives have a fitted effect of over 60% in size
Conditions: P. falciparum in erythrocytes, SYBR Green DNA, 72 h; series mostly up to 28.7 µM
Protocol: NIH National Institute of Allergy and Infectious Diseases [NIAID] NIH Chemical Genomics Center [NCGC] […] Because mature erythrocytes lack DNA, only Plasmodium-derived DNA is detected. NCGC Assay Protocol Summary: The SYBR Green viability assay was adapted from a method described previously (Plouffe et al., 2008). […] The following morning, fluorescence intensity at 485(14) nm excitation and 535(25) nm emission wavelengths was measured on an EnVision (Perkin Elmer) plate reader. […]
Inconclusive results are not listed. The source made the active and inactive calls. Calls follow the shape of the dose curve; as a rule, active = well fitted inhibition curve with a large enough effect; inconclusive = small, poorly fitted or top-dose-only effect; inactive = flat fitted curve, though single readings scatter.
Result category, one only: active, inactive

• CC(NNC(=O)c1ccccc1)c1ccccc1 (centres undefined) = inactive

-- ask Recorded test outcome, item Nc1ncnc2c1ncn2[C@@H]1O[C@H](COP(=O)(O)OP(=O)(O)OP(=O)(O)O)[C@@H](O)[C@H]1O
-- reply inactive

-- ask Recorded test outcome, item CCOC(C)=O
-- reply inactive

-- ask Recorded test outcome, item CCC(=O)NCCC1CCc2ccc3c(c21)CCO3 (centres undefined)
-- reply inactive

-- ask Recorded test outcome, item CCCCCCCCCCCC[n+]1ccc2ccccc2c1
-- reply active

-- ask Recorded test outcome, item CCCCCCCCCCCCCC[n+]1ccc(C)cc1
-- reply active

* * *

assay: qHTS drug screen for cell cycle checkpoint inhibitors in PARPi-resistant BRCA-mutant ovarian cancer cell lines. (AID 1963452); conditions: PEO1/OlaR viability, CellTiter-Glo luminescence, 96 h; measured here: PEO4 Z-AUC; stronger effect = lower value
Observed property: Z-AUC
Field format: numeric only.

* COc1cc2c(Nc3ccc(Cl)c(Cl)c3F)ncnc2cc1OCC1C[C@@H]2CN(C)C[C@@H]2C1 (stereo partly drawn) | -0.609

-- ask Could you share which Z-AUC value was measured for CNC(=O)c1ccc(Nc2ncc(C(F)(F)F)c(NCc3nccnc3N(C)S(C)(=O)=O)n2)cc1 ?
-- reply -0.174

-- ask Could you share which Z-AUC value was measured for CCOC(=O)[C@H]1O[C@@H]1C(=O)N[C@@H](CC(C)C)C(=O)NCCC(C)C ?
-- reply 0.891

* * *

assay: Primary qHTS for inhibitors of nuclear receptor binding SET domain protein 2 (NSD2) in an isogenic RCH-ACV NSD2 p.E1099K mutant (9B) (AID 1645876); settings: RCH-ACV (leukaemia line) NSD2 E1099K (9B) viability, CellTiter-Glo, 72 h; series mostly up to 44.9 µM; also: nearly all actives have a fitted effect of over 70% in size; as to activity change, negative = viability loss: % is scaled to controls: 0 for no effect and ±100 for the full control effect
Records with an inconclusive call do not appear. The source made the active and inactive calls. Calls follow the shape of the dose curve; as a rule, active = well fitted inhibition curve with a large enough effect; inconclusive = small, poorly fitted or top-dose-only effect; inactive = flat fitted curve, though single readings scatter.
Observed property: activity change, negative = viability loss

Example molecules with recorded activity change, negative = viability loss:
• O=C(c1ccccn1)c1cnn2c(-c3ccncc3)ccnc12 = inactive
• O=c1ccn([C@@H]2O[C@H](CO)[C@@H](O)[C@H]2O)c(=O)[nH]1 = inactive
• COC12CC3C(C(C)C1=CC(=O)O2)C(O)C(OC(C)=O)C1C(C)(C)C(OC(C)=O)CCC31C (stereo not given) = inactive
• C=CC(C)(O)CC/C=C(\C)C(=O)OC1CC2(C(=O)O)CCC3(C)C(=CCC4C5(C)CCC(OC6OC(COC7OCC(O)C(O)C7O)C(O)C(OC7OCC(O)C(O)C7O)C6OC6OC(CO)C(O)C(O)C6OC6OCC(O)C(O)C6O)C(C)(C)C5CCC43C)C2CC1(C)C (stereo not given) = -9.57% [at 9.23 µM] (inactive)

We next turn to a different molecule, shown below.
-- ask Could you share which activity change, negative = viability loss value was measured for COc1cc(O[C@@H]2O[C@H](CO)[C@@H](O)[C@H](O)[C@H]2O)c(CCC(=O)OC[C@H]2O[C@@H](Oc3cc(OC)c(C4OC(=O)C(C)(O)C4O)cc3CCC(=O)O)[C@H](O)[C@@H](O)[C@@H]2O)cc1C1OC(=O)C(C)(O)C1O (stereo not given in full) ?
-- reply -2.96% [at 9.23 µM] (inactive)
